All values here come from patent US20260262643A1.

System: blackgrass
Test: Test A preemergence
Type: in vivo, Alopecurus myosuroides
Conditions: Alopecurus myosuroides, pre-emergence, 240 h, 500 g ai/ha, 0 to 100 scale (0 no effect, 100 complete control), 10 days, read-out: Plant response rating, Blackgrass
This section presents compounds with their documented pest or weed control at 500 g/ha values.
Give your result in % as a bare value.

Study these solved cases before continuing.
compound=C[C@H]1CN(C(=O)c2cccc(-n3cnc(C4CCC4)n3)c2)c2cccc(Cl)c2O1 reported_value=90
compound=Cc1cccc2c1O[C@@H](C)CN2C(=O)c1cccc(-n2cnc(C3CCCC3)n2)c1 reported_value=40
compound=CCc1ncn(-c2ccc(OC)c(C(=O)N3C[C@H](C)Oc4c(Cl)cccc43)c2)n1 reported_value=80
compound=Cc1cccc2c1O[C@@H](C)CN2C(=O)c1cccc(-n2cnc(Br)n2)c1 reported_value=70
compound="Cc1ncn(-c2ccc(C)c(C(=O)N3C[C@H](C)Oc4c(Cl)cccc43)c2)n1 (single isomer, unassigned)" reported_value=90
compound=CCc1ccc(-n2cnc(C(C)C)n2)cc1C(=O)N1C[C@H](C)Oc2c(Cl)cccc21 reported_value=90

In the following, a different compound is considered.
Identify measured pest or weed control at 500 g/ha associated with `Cc1ccc(-n2cnc(C(C)C)n2)cc1C(=O)N1C[C@H](C)Oc2c(Cl)cccc21`
90
